Quick list: koff per entry.
Target: T1, recombinant human IL-23 (human, UniProt Q9NPF7 20-189; P29460 23-328)
T1 construct: also called hIL-23
T1 sequence 1: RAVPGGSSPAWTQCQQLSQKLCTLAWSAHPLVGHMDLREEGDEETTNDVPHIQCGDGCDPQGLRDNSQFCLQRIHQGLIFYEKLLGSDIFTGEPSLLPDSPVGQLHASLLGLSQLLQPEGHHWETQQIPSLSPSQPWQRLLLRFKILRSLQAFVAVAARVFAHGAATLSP
T1 sequence 2: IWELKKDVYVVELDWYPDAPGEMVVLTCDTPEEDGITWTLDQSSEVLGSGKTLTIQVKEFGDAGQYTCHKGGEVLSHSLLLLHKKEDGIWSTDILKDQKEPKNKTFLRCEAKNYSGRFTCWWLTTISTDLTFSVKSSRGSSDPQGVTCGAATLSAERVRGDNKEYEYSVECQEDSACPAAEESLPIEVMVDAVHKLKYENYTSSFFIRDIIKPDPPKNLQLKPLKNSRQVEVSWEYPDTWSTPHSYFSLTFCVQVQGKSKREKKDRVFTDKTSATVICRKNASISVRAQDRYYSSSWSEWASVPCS
Experiment: SPR (Biacore 3000), CHO supernatant antibody captured on Protein A or anti-human IgG, IL-23 analyte at 256, 64, 16, 4 nM
Only the number, expressed in s⁻¹, is required.

As a guide, the following entries are already answered.
>>> value_observed("A3M0 (antibody, human IgG1, kappa, V domains shown, Full length chains; also called humanized mAb A3M0) VH: QVQLVQSGAEVKKPGSSVKVSCKASGYTFTSYGITWVRQAPGQGLEWMGENYPRSGNTYYNEKFKGRVTITADKSTSTAYMELSSLRSEDTAVYYCARSEFISTVVAPYYYALDYWGQGTLVTVSS VL: DIVMTQSPDSLAVSLGERATINCKASKKVTIFGSISALHWYQQKPGQPPKLIYNGAKLESGVPDRFSGSGSGTDFTLTISSLQAEDVAVYYCLQNKEVPYTFGGGTKVEIKR")
0.00033
>>> value_observed("A3M1 (antibody, human IgG1, kappa, V domains shown, Full length chains) VH: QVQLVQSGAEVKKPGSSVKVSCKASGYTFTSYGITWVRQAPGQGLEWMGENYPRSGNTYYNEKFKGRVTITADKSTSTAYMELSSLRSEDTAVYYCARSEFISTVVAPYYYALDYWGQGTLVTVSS VL: DIVMTQSPDSLAVSLGERATINCKASKKVTIFGSISALHWYQQKPGQPPKLIYNGAKLESGVSDRFSDSGSQNRSPFGNQLSFTLTISSLQAEDVAVYYCLQNKEVPYTFGGGTKVEIKR")
0.00036

Switching to the query record.
Dear colleague, I am looking for the recorded koff of the following binder: A3N2 (antibody, human IgG1, kappa, V domains shown, Full length chains) VH: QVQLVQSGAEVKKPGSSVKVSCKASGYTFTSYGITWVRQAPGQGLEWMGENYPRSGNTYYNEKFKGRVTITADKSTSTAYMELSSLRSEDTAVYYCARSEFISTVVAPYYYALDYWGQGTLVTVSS VL: DIVMTQTPLSLSVTPGQPASISCKASKKVTIFGSISALHWYLQKPGQPPQLIYNGAKLESGVSDRFSDSGSGTDFTLKISRVEAEDVGVYYCLQNKEVPYTFGGGTKVEIKR
0.00041
